B1: Zinc finger homeobox protein 3, residues 2147 to 2202; numbered along this chain, Q15911 (parent)
chain: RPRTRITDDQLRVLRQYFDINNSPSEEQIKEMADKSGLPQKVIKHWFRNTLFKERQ

Variants of: B1
Assay: abundance fitness (aPCA) (normalised: wild type 0, dead -1); higher = more abundant; growth selection in yeast, the domain comes from the species named
Settings: Homo sapiens
PROPERTY: abundance fitness
One number for each entry.

Record excerpt, results attached:
{"MUTATIONS": "L38H", "abundance fitness": -1.1}
{"MUTATIONS": "Q10N", "abundance fitness": -0.477}
{"MUTATIONS": "L38T", "abundance fitness": -0.449}
{"MUTATIONS": "K44G", "abundance fitness": -0.11}

For every record below, what is its abundance fitness?
1. D9R
2. P2G
3. V13W
4. L11C

1: -0.143; 2: -0.005; 3: 0.003; 4: -1.12
